assayProtocol: Oral bioavailability in monkey at 2 mg/kg
Format: ADME, organism-based, Macaca mulatta
studyConditions: rhesus monkey, in vivo
recordedEndpoint: bioavailability (%)
Numbers only, in %.

Consider the compound shown here: "C[C@@H]1c2nnc(C(F)(F)F)n2CCN1C(=O)C[C@H](N)Cc1cc(F)c(F)cc1F.Cl" What is its recorded bioavailability?
85

* * *

systemUnderTest: Dipeptidyl peptidase 4 (Homo sapiens, UniProt P27487)
Sequence (P27487 whole entry): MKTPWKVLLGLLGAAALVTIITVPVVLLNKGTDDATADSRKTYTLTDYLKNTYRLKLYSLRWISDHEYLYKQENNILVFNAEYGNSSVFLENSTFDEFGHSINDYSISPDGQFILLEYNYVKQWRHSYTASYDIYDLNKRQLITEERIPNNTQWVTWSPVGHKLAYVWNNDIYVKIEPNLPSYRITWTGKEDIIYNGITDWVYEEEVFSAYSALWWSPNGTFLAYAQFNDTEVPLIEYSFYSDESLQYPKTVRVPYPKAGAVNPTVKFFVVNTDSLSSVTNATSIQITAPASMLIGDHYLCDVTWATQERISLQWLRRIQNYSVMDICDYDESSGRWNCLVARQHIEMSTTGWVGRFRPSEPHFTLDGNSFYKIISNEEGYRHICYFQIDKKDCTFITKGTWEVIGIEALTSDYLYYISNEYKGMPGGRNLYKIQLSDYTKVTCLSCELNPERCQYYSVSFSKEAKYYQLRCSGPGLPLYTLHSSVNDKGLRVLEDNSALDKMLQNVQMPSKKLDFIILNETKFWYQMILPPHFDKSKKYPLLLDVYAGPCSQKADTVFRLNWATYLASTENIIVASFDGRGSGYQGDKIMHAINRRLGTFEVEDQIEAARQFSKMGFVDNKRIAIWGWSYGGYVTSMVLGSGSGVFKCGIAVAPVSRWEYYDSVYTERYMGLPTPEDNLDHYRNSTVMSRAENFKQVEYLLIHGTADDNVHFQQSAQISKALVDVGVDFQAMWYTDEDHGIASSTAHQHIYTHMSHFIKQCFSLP
recordedEndpoint: pIC50
One number for each entry, as −log10 of the molar value.

See these solved cases before continuing.
| compound | result |
| --- | --- |
| N[C@@H](CC(=O)N1CCn2c(nnc2C(F)(F)F)C1C(O)c1ccc(F)cc1)Cc1cc(F)c(F)cc1F (stereo in doubt; 47c) | 7.05 |
| Cl.N[C@@H](CC(=O)N1CCn2c(nnc2C(F)(F)F)C1Cc1ccccn1)Cc1cc(F)c(F)cc1F (stereo in doubt; 49b) | 9.40 |
| N[C@@H](CC(=O)N1CCn2c(nnc2C(F)(F)F)C1Cc1ccccc1C(F)(F)F)Cc1cc(F)c(F)cc1F (stereo in doubt; 44a) | 6.36 |
| C[C@H]1c2nnc(C(F)(F)F)n2[C@@H](C)CN1C(=O)C[C@H](N)Cc1cc(F)c(F)cc1F | 6.68 |
| C[C@@H]1c2nnc(C(F)(F)F)n2CCN1C(=O)C[C@H](N)Cc1cc(F)c(F)cc1F.Cl | 8.37 |

Batch of 2 compounds: report pIC50 for each.
1. CC1c2nnc(C(F)(F)F)n2C(C)CN1C(=O)C[C@H](N)Cc1cc(F)c(F)cc1F (stereo in doubt; 16d)
2. Cl.N[C@@H](CC(=O)N1CCn2c(nnc2C(F)(F)F)[C@H]1Cc1ccc(F)cc1)Cc1cc(F)c(F)cc1F (mixture of isomers)

1. 7.96
2. 9.74

* * *

Would you mind telling me the reported IC50 of each entry?
systemUnderTest: UniProtKB Q6V1X1
Sequence (Q6V1X1 whole entry): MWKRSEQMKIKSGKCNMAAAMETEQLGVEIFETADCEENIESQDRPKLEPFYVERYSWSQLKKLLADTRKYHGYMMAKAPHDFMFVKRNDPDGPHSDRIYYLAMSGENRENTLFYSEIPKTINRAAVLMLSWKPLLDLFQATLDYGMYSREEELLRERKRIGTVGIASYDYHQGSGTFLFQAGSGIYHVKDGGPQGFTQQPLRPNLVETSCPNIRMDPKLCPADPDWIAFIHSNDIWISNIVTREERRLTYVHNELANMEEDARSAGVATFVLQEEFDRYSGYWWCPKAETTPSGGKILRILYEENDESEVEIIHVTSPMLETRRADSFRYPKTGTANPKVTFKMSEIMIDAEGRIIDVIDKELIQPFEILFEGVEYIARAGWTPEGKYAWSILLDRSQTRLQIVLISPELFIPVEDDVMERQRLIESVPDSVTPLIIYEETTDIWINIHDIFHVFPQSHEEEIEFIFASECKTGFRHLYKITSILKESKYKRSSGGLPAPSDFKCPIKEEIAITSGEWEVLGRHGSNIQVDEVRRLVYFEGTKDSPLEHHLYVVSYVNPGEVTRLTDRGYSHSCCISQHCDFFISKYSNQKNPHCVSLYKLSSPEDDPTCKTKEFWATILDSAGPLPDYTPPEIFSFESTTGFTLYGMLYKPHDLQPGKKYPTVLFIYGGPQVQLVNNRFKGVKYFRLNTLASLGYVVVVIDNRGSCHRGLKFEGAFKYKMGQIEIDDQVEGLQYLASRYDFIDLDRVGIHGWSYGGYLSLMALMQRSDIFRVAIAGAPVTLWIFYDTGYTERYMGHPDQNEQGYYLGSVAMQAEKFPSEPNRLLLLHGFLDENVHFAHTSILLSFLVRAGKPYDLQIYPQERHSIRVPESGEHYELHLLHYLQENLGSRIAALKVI
Answers are plain numbers, in µM.

| molecule | systemUnderTest | result |
| --- | --- | --- |
| N[C@@H](CC(=O)N1CCn2c(nnc2C(F)(F)F)C1C(O)c1ccc(F)cc1)Cc1cc(F)c(F)cc1F (stereo in doubt; 47c) | UniProtKB Q6V1X1 | 40 |
| C[C@@H]1Cn2c(nnc2C(F)(F)F)CN1C(=O)C[C@H](N)Cc1cc(F)c(F)cc1F | UniProtKB Q6V1X1 | 75 |

Consider the molecule shown here: Cl.N[C@@H](CC(=O)N1CCn2c(nnc2C(F)(F)F)C1C(O)c1ccc(F)cc1)Cc1cc(F)c(F)cc1F (stereo in doubt; 47b) What is its recorded IC50?
0.326

* * *

IC50 data for UniProt Q86TI2 follow.
Sequence (Q86TI2 whole entry): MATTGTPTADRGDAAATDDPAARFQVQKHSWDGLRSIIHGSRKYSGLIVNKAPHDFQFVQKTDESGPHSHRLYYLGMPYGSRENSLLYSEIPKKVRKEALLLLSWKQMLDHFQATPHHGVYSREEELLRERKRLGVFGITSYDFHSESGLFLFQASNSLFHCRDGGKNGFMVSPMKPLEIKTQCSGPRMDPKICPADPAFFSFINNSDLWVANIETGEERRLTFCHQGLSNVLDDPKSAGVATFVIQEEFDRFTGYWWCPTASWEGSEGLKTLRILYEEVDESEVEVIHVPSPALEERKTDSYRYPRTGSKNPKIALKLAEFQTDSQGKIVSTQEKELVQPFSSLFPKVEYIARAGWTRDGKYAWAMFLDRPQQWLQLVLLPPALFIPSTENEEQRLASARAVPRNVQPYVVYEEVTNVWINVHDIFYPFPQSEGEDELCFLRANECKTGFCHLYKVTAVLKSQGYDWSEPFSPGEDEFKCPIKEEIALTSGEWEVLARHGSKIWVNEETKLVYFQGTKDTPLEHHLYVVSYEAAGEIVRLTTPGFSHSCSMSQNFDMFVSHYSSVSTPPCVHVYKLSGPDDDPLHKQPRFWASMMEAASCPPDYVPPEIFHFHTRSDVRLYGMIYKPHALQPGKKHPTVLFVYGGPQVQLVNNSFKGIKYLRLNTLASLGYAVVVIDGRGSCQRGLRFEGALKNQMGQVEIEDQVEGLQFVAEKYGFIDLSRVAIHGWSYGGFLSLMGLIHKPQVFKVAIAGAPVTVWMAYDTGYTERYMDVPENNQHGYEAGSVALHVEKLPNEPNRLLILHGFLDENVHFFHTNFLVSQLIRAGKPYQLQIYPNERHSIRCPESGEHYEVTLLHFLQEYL

Batch of 5 molecules: report IC50 for each.
1. N[C@@H](CC(=O)N1CCn2c(nnc2C(F)(F)F)C1C(O)c1ccc(F)cc1)Cc1cc(F)c(F)cc1F (stereo in doubt; 47d)
2. N[C@@H](CC(=O)N1CCn2c(nnc2C(F)(F)F)C1Cc1cc(C(F)(F)F)cc(C(F)(F)F)c1)Cc1cc(F)c(F)cc1F (stereo in doubt; 48a)
3. N[C@@H](CC(=O)N1CCn2c(nnc2C(F)(F)F)C1Cc1ccccc1C(F)(F)F)Cc1cc(F)c(F)cc1F (stereo in doubt; 44b)
4. CC1c2nnc(C(F)(F)F)n2C(C)CN1C(=O)C[C@H](N)Cc1cc(F)c(F)cc1F (stereo in doubt; 16d)
5. CCC1c2nnc(C(F)(F)F)n2CCN1C(=O)C[C@H](N)Cc1cc(F)c(F)cc1F (stereo in doubt; 38b)

> 100 µM
> 100 µM
> 100 µM
62 µM
> 100 µM

Batch of 2 molecules: report IC50 for each.
1. N[C@@H](CC(=O)N1CCn2c(nnc2C(F)(F)F)[C@@H]1Cc1ccc(F)cc1)Cc1cc(F)c(F)cc1F
2. Cl.N[C@@H](CC(=O)N1CCn2c(nnc2C(F)(F)F)[C@H]1Cc1ccc(F)cc1)Cc1cc(F)c(F)cc1F (mixture of isomers)

1. > 100 µM
2. 20 µM
